assay: self-splicing fitness, log relative to wild type (ln ratio); higher = more splicing; Tetrahymena group I intron in knt gene, E. coli kanamycin selection, DiMSum; sequences stand for … in CUCUCU…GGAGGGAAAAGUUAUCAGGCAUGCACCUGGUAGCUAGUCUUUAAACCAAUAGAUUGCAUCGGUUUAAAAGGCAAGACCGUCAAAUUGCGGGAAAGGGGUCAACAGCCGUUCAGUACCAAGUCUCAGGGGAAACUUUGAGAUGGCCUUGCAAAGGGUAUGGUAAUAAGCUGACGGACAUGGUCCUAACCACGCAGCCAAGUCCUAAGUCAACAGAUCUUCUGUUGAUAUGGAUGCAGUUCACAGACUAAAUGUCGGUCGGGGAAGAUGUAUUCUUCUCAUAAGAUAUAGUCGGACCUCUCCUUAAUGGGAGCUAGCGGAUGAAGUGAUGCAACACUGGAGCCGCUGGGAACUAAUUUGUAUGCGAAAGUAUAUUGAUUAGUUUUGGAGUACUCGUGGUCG; conditions: 37 °C;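 further: selection with 25 µg/mL kanamycin versus none on LB agar overnight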
Measured self-splicing fitness (ln), listed per entry.
measure name: self-splicing fitness (ln)

sequence text	measure name	reported
UCCAAGCAAUAUUACGCUAA	self-splicing fitness (ln)	-1.36
ACAGAGCAAUAUUACGGACU	self-splicing fitness (ln)	-1.07
GGAAAGCAAUAUUACGAGUU	self-splicing fitness (ln)	-1.08
UCCUAGCAAUAUUACGAUAG	self-splicing fitness (ln)	-2.14
GAUAAGCAAUAUUACGCUAG	self-splicing fitness (ln)	0.0994
AGUAAGCAAUAUUACGGCAA	self-splicing fitness (ln)	-0.179
CUCUAGCAAUAUUACGAGUA	self-splicing fitness (ln)	-1.18
UGGGAGCAAUAUUACGGAUU	self-splicing fitness (ln)	-3.06
CGGGAGCAAUAUUACGGACG	self-splicing fitness (ln)	-2.14
UCCGAGCAAUAUUACGCUGA	self-splicing fitness (ln)	-1.97
CAGCAGCAAUAUUACGUAGA	self-splicing fitness (ln)	-1.57
AUUCAGCAAUAUUACGUUAA	self-splicing fitness (ln)	-0.923
UAGUAGCAAUAUUACGUUAA	self-splicing fitness (ln)	-2.06
ACGAAGCAAUAUUACGUCCC	self-splicing fitness (ln)	-1.07
CCUAAGCAAUAUUACGCGUU	self-splicing fitness (ln)	-2.69
ACAGAGCAAUAUUACGGGUG	self-splicing fitness (ln)	-1.43
UAAUAGCAAUAUUACGCCGA	self-splicing fitness (ln)	-1.51
GAAUAGCAAUAUUACGGGCG	self-splicing fitness (ln)	-0.509
CGGUAGCAAUAUUACGAUCC	self-splicing fitness (ln)	-1.56
UCCUAGCAAUAUUACGGCAA	self-splicing fitness (ln)	-1.95
CCGCAGCAAUAUUACGCCCC	self-splicing fitness (ln)	-1.4

----------
Measured self-splicing fitness (ln), listed per entry.
test: self-splicing fitness, log relative to wild type (ln ratio); higher = more splicing; Tetrahymena group I intron in knt gene, E. coli kanamycin selection, DiMSum; sequences stand for … in CUCUCU…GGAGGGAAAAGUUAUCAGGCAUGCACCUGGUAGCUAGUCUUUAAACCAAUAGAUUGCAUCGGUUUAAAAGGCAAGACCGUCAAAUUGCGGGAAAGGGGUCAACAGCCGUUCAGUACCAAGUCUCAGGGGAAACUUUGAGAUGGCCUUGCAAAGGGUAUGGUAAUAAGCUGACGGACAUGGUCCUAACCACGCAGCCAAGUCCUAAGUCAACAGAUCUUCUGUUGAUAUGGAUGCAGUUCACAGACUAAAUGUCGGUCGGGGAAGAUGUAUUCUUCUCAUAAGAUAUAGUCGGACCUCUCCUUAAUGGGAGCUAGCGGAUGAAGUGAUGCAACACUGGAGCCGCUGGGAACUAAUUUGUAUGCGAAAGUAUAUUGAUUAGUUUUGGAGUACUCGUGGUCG; conditions: 37 °C

sequence text	self-splicing fitness (ln)
UAGUAGCAAUAUUACGGACA	-0.115
UUAAAGCAAUAUUACGGUGU	-1.29
CCCUAGCAAUAUUACGAGUA	-2.72
GACGAGCAAUAUUACGCGCC	-1.59
UGAAAGCAAUAUUACGGACA	-0.28

Where these numbers come from: the supplement of paper PMC7877785
